test target: human KV7.2/KV7.3 (Homo sapiens (Human), UniProt O43525+O43526)
assay: Potassium flux assay (IPG-2 AM dye)
condition parameters: TREX HEK 293 or HEK 293 cells expressing human KV7.2/KV7.3; arithmetic mean values
pEC50: −log10 of the molar value. Counter-ions that a name gives are not always drawn.
Below, each of the molecules is paired with its reported pEC50 value.

molecule | pEC50
N#CCC1(COc2ccc3c(Nc4cnc(Cl)nc4)nccc3c2)CC1 [Example 147] | > 6.00
Cn1cc(F)c(COc2ccc3c(Nc4ccc(Cl)nc4)nccc3c2)n1 [Example 397, formate] | > 6.00
Oc1ccc2c(Nc3cnc(Cl)nc3)nccc2c1 [Example 243] | 4.52 to 5.00
Clc1ccc(Nc2nccc3cc(OCCOC4CC4)ccc23)cn1 [Example 39] | 5.00 to 6.00
C[C@H](COc1ccc2c(Nc3ccc(Cl)nc3)nccc2c1)c1cnn(C)c1 [Example 160] | 5.00 to 6.00
